assay: Pharmacokinetic profile in mice after I.V. injection (LC-MS/MS of plasma, brain, liver, kidney); format: in vivo, mouse; details: male, C57BL/6, mouse, iv; liver, 10 mg/kg I.V.; read-out: AUC24h

{"Molecule": "COc1cc(CC(=O)Nc2cc(C3CCC3)[nH]n2)cc(OC)c1OC [25–106]", "Unit Tag": "ng·h/mL", "AUC(0-t)": 3080}

====

assay: Pharmacokinetic profile in mice after I.V. injection (LC-MS/MS of plasma, brain, liver, kidney); format: in vivo, mouse; details: male, C57BL/6, mouse, liver, iv, 100 mg/kg, liver, 100 mg/kg I.V.; read-out: Cmax
Test Readout: Cmax (ng/g)

{"Compound": "COc1cc(CC(=O)Nc2cc(C3CCC3)[nH]n2)cc(OC)c1OC [25–106]", "Unit Tag": "ng/g", "Recorded Number": 868}
